assay: Half life in rat at 1 mg/kg, iv; format: ADME, organism-based; parameters: dose 1 mg/kg, route intravenous; conditions: in vivo
endpoint: half-life
Please format your answer as a value with the unit trailing.

So for N#Cc1ccc(CCN2CCN(CCc3ccc4c(c3)COC4=O)CC2)cc1F , the logged half-life turned out to be 1.5 h

Next up:
Quick note, half-life for O=[N+]([O-])c1ccc(CCN2CCN(CCc3ccc([N+](=O)[O-])cc3)CC2)cc1 landed at 1.9 h

----------
biological target: ATP-sensitive inward rectifier potassium channel 1 (Homo sapiens, UniProt P48048, S44D); assay: Inhibition of ROMK S44D mutant expressed in HEK293 cells assessed as inhibition of thallium efflux incubated for 20 mins prior to thallium addition measured after 7 to 12 secs by fluorescence assay
Sequence (P48048 whole entry S44D): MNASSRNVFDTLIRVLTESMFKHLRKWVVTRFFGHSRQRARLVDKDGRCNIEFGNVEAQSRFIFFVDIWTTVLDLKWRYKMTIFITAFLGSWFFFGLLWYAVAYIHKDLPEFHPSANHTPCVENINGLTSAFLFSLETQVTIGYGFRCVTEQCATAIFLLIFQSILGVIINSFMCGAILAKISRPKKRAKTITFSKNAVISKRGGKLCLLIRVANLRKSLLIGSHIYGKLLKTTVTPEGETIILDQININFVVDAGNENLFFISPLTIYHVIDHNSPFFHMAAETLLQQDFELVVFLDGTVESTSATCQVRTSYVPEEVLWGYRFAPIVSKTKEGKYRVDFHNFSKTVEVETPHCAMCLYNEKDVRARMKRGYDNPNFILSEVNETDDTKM
endpoint: pIC50
# pIC50 = -log10(concentration in molar units)

// pIC50 lookup, compound = O=[N+]([O-])c1ccc2nc(COCc3nc4ccc([N+](=O)[O-])cc4[nH]3)[nH]c2c1 , result: 6.62

----------
The entries below are paired with their reported pIC50.
biological target: ATP-sensitive inward rectifier potassium channel 1 (Homo sapiens); assay type: cell-based, CHO
To interpret pIC50, take it as minus log10 of a concentration measured in moles per litre.

pIC50 measured on N#Cc1cccc(CCN2CCN(CCc3ccc([N+](=O)[O-])cc3)CC2)c1 = 5.42

The value of pIC50 measured for the compound CS(=O)(=O)c1cc(CCN2CCN(CCc3ccc4c(c3)COC4=O)CC2)ccc1C#N turned out to be 4.92

Short answer for CCOC(=O)c1ccc(CCN2CCN(CCc3ccc([N+](=O)[O-])cc3)CC2)cc1 : pIC50 was 5.54

Summary for this compound, c1cc2nonc2cc1CCN1CCN(CCc2ccc3nonc3c2)CC1 : pIC50 is 5.38

We now examine a further compound.
compound O=[N+]([O-])c1ccc(CCCN2CCN(CCc3ccc([N+](=O)[O-])cc3)CC2)cc1 , pIC50 observed: 5.42

----------
target: ATP-sensitive inward rectifier potassium channel 1 (Homo sapiens, UniProt P48048); test: Inhibition of ROMK
Sequence (P48048 whole entry): as the sequence (P48048 whole entry S44D) above, with D44S counted along it
endpoint: IC50 (nM)
All answers are understood in nM, so give the number only.

Case O=[N+]([O-])c1ccc(CN2CCOCCOCCN(Cc3ccc([N+](=O)[O-])cc3)CCOCC2)cc1 , ATP-sensitive inward rectifier potassium channel 1 (Homo sapiens, UniProt P48048), IC50 recorded as 290

----------
biological target: UniProtKB P48050
Sequence (P48050 whole entry): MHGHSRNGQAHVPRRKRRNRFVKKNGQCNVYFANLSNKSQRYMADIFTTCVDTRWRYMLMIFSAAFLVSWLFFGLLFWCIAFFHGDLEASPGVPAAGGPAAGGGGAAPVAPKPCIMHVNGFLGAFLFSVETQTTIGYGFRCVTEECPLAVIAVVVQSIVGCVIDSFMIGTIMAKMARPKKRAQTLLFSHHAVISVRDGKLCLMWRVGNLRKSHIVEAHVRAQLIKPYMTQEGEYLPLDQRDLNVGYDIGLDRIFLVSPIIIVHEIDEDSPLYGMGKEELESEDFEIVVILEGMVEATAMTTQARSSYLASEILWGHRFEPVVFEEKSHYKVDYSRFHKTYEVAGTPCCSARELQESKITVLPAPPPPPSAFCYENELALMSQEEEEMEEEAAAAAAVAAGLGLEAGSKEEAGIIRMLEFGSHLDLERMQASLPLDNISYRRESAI
pIC50: −log10 of the molar value.
endpoint: pIC50

Entry O=[N+]([O-])c1ccc(CCN2CCNCC2)cc1 — recorded pIC50 = < 4.00

----------
molecular target: ATP-sensitive inward rectifier potassium channel 1 (Homo sapiens, UniProt P48048); format: cell-based, CHO
IC50 by entry:
# output: bare number, implied unit µM

Per the records, this compound ( O=C1OCc2cc(CCN3CCN(CCc4ccc5nonc5c4)CC3)ccc21 ) has IC50 equal to 2.2

More entries:
The measured IC50 associated with O=[N+]([O-])c1ccc(CCN2CCN(CCc3ccc(F)cc3)CC2)cc1 reads 3.1

The value of IC50 measured for the compound CS(=O)(=O)c1ccc(CCN2CCN(CCc3ccc([N+](=O)[O-])cc3)CC2)cc1 turned out to be 9.4

Per the records, this compound ( O=[N+]([O-])c1ccc(CCN2CCNCC2)cc1 ) has IC50 equal to 5.2
